Cited source for all entries: the supplement of paper PMC6755084

B1: F1*; the commonest letter at each place (parent)
chain: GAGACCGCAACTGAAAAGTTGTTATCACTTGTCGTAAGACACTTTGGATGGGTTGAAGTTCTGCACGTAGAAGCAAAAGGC

variants of: B1; assay: fraction ligated after 30 min (ligated reads / total reads); higher = more ligase activity; conditions: with F1*sub RNA substrate (template-directed ligation), 42 °C
metric.name: fraction ligated
Keep it simple and answer with nothing but the number.

Consider the variant C28T T29G . State its measured fraction ligated.
0.825

Consider the variant T44A T45G . State its measured fraction ligated.
0.187

Consider the variant T44G T45C . State its measured fraction ligated.
0.797

Consider the variant T23C G47C . State its measured fraction ligated.
0.0373

Consider the variant G38C T43G . State its measured fraction ligated.
0.812

Consider the variant C40T G55T . State its measured fraction ligated.
0.816

Consider the variant A39G A41T . State its measured fraction ligated.
0.796

Consider the variant T32C G55C . State its measured fraction ligated.
0.664

Consider the variant T30A A56C . State its measured fraction ligated.
0.773

Consider the variant G38T A39G . State its measured fraction ligated.
0.798

Consider the variant T30C A37C . State its measured fraction ligated.
0.794

Consider the variant T25A T44A . State its measured fraction ligated.
0.762

Consider the variant C26G C33T . State its measured fraction ligated.
0.738

Consider the variant G38A A39C . State its measured fraction ligated.
0.817

Consider the variant T44G T49C . State its measured fraction ligated.
0.183

Consider the variant G34A A39G . State its measured fraction ligated.
0.835

Consider the variant C40T C42G . State its measured fraction ligated.
0.857

Consider the variant T35G A57G . State its measured fraction ligated.
0.838

Consider the variant T30A A56T . State its measured fraction ligated.
0.81

Consider the variant T29G A48T . State its measured fraction ligated.
0.773

Consider the variant T29G T43A . State its measured fraction ligated.
0.826

Consider the variant C28G G38T . State its measured fraction ligated.
0.772
